Multiple publications report Ki for Prothrombin (Homo sapiens, UniProt P00734); what follows is a combined list.
READOUT: Ki (µM)

A. N=C(N)c1cccc(C(=O)N[C@@H](C(=O)N2CCN(c3ccncc3)CC2)c2ccccc2)c1
B. CN1CCN=C1c1cccc(Oc2nc(Oc3cc(C(=N)N)ccc3O)c(F)c(N(C)CC(=O)O)c2F)c1
C. COc1ccc(COc2cccc(NC(=O)C3CCN(c4ccncc4)CC3)c2)cc1OC
Sort the listed entries by Ki, smallest first. Give the labels in the order specified.
C, B, A
(C: 0.755 µM, B: 2 µM, A: 17.8 µM)

====

Collected set of pKi measured with Prothrombin (Homo sapiens) across studies.
pKi: −log10 of the molar value.

Check the records and state pKi for CS(=O)(=O)N[C@@H](C(=O)N1CCC[C@H]1C(=O)NCc1cc(C(N)=NN)cs1)C(c1ccccc1)c1ccccc1
8.66

Query pKi for COC(=O)[C@H](Cc1cccc(C(=N)N)c1)[C@@H](C)NC(=O)c1ccc(-c2cccc(C(N)=O)c2)cc1
< 5.40

Please report the measured pKi for Cc1ccc(NC(=O)c2sccc2Cl)c(C(=O)Nc2ccc(Cl)cc2)c1
< 5.30

# context switch: different compound, same pKi
Tell us which pKi value is on record for Cc1ccc(NC(=O)c2sc3ccccc3c2Cl)c(C(=O)Nc2ccc(Cl)cn2)c1
< 5.30

====

Ki values for Prothrombin (Homo sapiens, UniProt P00734) compiled from several publications are listed below.
READOUT: Ki (nM)

Illustrative cases are given below, each with its answer.
For CCc1ccc(-c2cccc(S(=O)(=O)NC(Cc3cccc(C(=N)N)c3)C(=O)N3CCC(CCN)CC3)c2)cc1 (racemic) , write its Ki.
33

Note Ki for the compound shown: N=C(N)c1cccc(CN2CC[C@H](NS(=O)(=O)c3ccc(-c4cccnc4)cc3)C2=O)c1
1960

// fetch Ki given entry CCCS(=O)(=O)Nc1ccc(C)n(CC(=O)NC2CCc3nc(N)sc3C2)c1=O (stereo unspecified)
2300

Input Cc1cnc(NCC2(c3ccc(F)cc3)CC2)c(=O)n1CC(=O)NCc1ccc2c(N)noc2c1 , output reported Ki.
15.5

Identify Ki associated with the compound O=C(Cn1c(Cl)cnc(NCC(F)(F)c2ccccn2)c1=O)NCc1ccccc1-c1nnn[nH]1
940

I. N=C(N)c1ccc(Oc2cc(Oc3ccc(C(N)=O)cc3)cc(C(=O)N[C@H]3CC[C@H](N)CC3)c2)cc1
II. CN1CCN(Cc2c(C(=O)Nc3ccc(Cl)cc3C(=O)Nc3ccc(Cl)cc3)sc3ccccc23)CC1
Endpoint returns whichever of I and II has the numerically higher Ki. Write down the label attached to your selection.
I

====

The compounds below each have a reported Ki tested on Prothrombin (Homo sapiens); the values come from various publications.

Example entries begin here.
Give Ki; test system Prothrombin (Homo sapiens); compound Cc1cc(NC(=O)c2sc3ccccc3c2Cl)c(C(=O)Nc2ccc(Cl)cc2)cc1Cl
> 5 µM

Param request: Ki | system Prothrombin (Homo sapiens) | item COC(=O)[C@H](Cc1cccc(C(=N)N)c1)[C@@H](C)NC(=O)c1ccc(-c2cccc[n+]2[O-])cc1
> 4 µM

Name the recorded Ki of O=C(NC1CCN(c2ccncc2)CC1)c1cc2ccccc2n1Cc1cc(-c2ccc(Cl)s2)on1 , assay system Prothrombin (Homo sapiens).
> 10 µM

Now take the following compound into account.
Report value: Ki, system: Prothrombin (Homo sapiens), compound: O=C(Nc1ccc(Cl)cc1)c1cc(Cl)ccc1NC(=O)c1scc(Cn2cnnn2)c1Cl
> 5 µM
